System: SNB-19 CNS
Experiment: NCI-60 one-dose screen, 48 h (100 = growth as untreated, 0 = no growth, -100 = all killed)
Settings: 10 µM unless noted
The panel holds about 83,000 compounds, 20% with a hit somewhere; the sample as a whole holds those more often. Active and inactive are the calls of the source. How the source made its calls: active means growth percent below 10; inactive means the rest.
Kindly state growth for each of the entries shown.

Examples with answers:
{"compound": "Clc1ccc(CNc2nc(SCCN3CCOCC3)nc3c2cnn3CC(Cl)c2ccc(Br)cc2)cc1 (stereo not drawn)", "growth": "50.4% (inactive)"}
{"compound": "CCc1ccc(SC2c3cc(OC)ccc3Oc3nc(N)c(C#N)c(N)c32)cc1 (stereo not drawn)", "growth": "0.536% (active)"}
{"compound": "ClC(Cn1ncc2c(Nc3cccc(Br)c3)nc(SCCN3CCOCC3)nc21)c1ccc(Br)cc1 (stereo not drawn)", "growth": "22.5% (inactive)"}
{"compound": "Cn1cc(-c2cc(N)n3nc(-c4c[nH]c5ccc(F)cc45)cc3n2)c2cc(Br)cnc21", "growth": "98.3% (inactive)"}
{"compound": "O=C(c1ccc(Cl)cc1)C1[C@H](c2ccccc2Cl)[C@@H](c2ccccc2)NC12C(=O)Nc1ccc(Cl)cc12 (stereo partly drawn)", "growth": "-28.4% (active)"}
{"compound": "COc1cc(/C=N/NC(=O)c2ccc(OCc3nc4ccc(C)cc4[nH]3)cc2)cc(OC)c1OC", "growth": "66.2% (inactive)"}
{"compound": "CN1CCN(C(=O)CCN(C(=O)Oc2cc3c(c4ccccc24)[C@H](CCl)CN3C(=O)c2cc3cc(OCCCN4CCC4)ccc3[nH]2)[C@H]2CCSSC2)CC1", "growth": "-50.7% (active)"}

# next compound below
Given item `Cc1ccc(N=Nc2c(N)nn3c(-c4cc5ccccc5oc4=O)ccnc23)cc1` , the value recorded as its growth is 32.2% (inactive)
